System: 475296-252-R-J1-PDC spheroid viability
measurement_description: Anticancer human tumor 475296-252-R-J1-PDC patient-derived rectal carcinoma cell line growth inhibition [PI3K]
condition_description: second compound 0.316 µM; first compound 0.316 µM; hits give low values; spheroids with HUVEC and MSC
Kindly apply the following: satisfied if viability, T/C is less than 90%, not satisfied in every other case.

Reference set, count: 4
INSERT INTO results (compound, study_system, qualitative_label) VALUES
  ('CCCS(=O)(=O)Nc1ccc(F)c(C(=O)c2c[nH]c3ncc(-c4ccc(Cl)cc4)cc23)c1F + CC(Nc1ncnc2nc[nH]c12)c1cc2cccc(Cl)c2c(=O)n1-c1ccccc1', '475296-252-R-J1-PDC spheroid viability', 'not satisfied'),
  ('C=CC(=O)N1CCN(c2nc(=O)n(-c3c(C)ccnc3C(C)C)c3nc(-c4c(O)cccc4F)c(F)cc23)C(C)C1 (stereo unspecified) + COc1c(OCCCN2CCOCC2)ccc2c3n(c(=NC(=O)c4cnc(N)nc4)nc12)CCN3', '475296-252-R-J1-PDC spheroid viability', 'satisfied'),
  ('C[C@@H](NC(=O)c1ncnc(N)c1Cl)c1ncc(C(=O)Nc2cc(C(F)(F)F)c(Cl)cn2)s1 + COc1c(OCCCN2CCOCC2)ccc2c3n(c(=NC(=O)c4cnc(N)nc4)nc12)CCN3', '475296-252-R-J1-PDC spheroid viability', 'satisfied'),
  ('Cn1ncc(Cl)c1-c1cc(C(=O)NC(CN)Cc2cccc(F)c2)sc1Cl (stereo unspecified) + CC(Nc1ncnc2nc[nH]c12)c1cc2cccc(Cl)c2c(=O)n1-c1ccccc1', '475296-252-R-J1-PDC spheroid viability', 'satisfied');

input: A record lists CC(Cn1ccc(-c2ccc(C#N)c(Cl)c2)n1)NC(=O)c1cc(C(C)O)[nH]n1 (stereo unspecified) + CC(Nc1ncnc2nc[nH]c12)c1cc2cccc(Cl)c2c(=O)n1-c1ccccc1 . Is its viability, T/C below 90%?
output: not satisfied

input: A record lists Cn1nccc1Nc1nccc(-c2ccn(C(CO)c3ccc(Cl)c(F)c3)c(=O)c2)n1 (stereo unspecified) + CC(Nc1ccc2c(c1)OCCn1cc(N3C(=O)OCC3C(F)F)nc1-2)C(N)=O . Is its viability, T/C below 90%?
output: satisfied

###

The reader will find reported viability, T/C values listed item by item below.
System: 475296-252-R-J1-PDC spheroid viability
measurement_description: Anticancer human tumor 475296-252-R-J1-PDC cell line growth inhibition [PI3K];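 note: spheroids exposed to agents for seven days before readout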
condition_description: second compound 0.0316 µM; first compound 0.1 µM; hits give low values; spheroids with HUVEC and MSC

Use these answered entries as a reference point.
INSERT INTO assay_data (molecule, result) VALUES
  ('CC(C)NCC(C(=O)N1CCN(c2ncnc3c2C(C)CC3O)CC1)c1ccc(Cl)cc1 (stereo unspecified) + CC(Nc1ccc2c(c1)OCCn1cc(N3C(=O)OCC3C(F)F)nc1-2)C(N)=O', '94.3%'),
  ('CNC(=O)c1ccc(N2C(=S)N(c3ccc(C#N)c(C(F)(F)F)c3)C(=O)C2(C)C)cc1F + CC(Nc1ccc2c(c1)OCCn1cc(N3C(=O)OCC3C(F)F)nc1-2)C(N)=O', '87.7%'),
  ('CC1(C)CCC(Nc2ncc(C(F)(F)F)c(-c3c[nH]c4c(P(C)(C)=O)c(C#N)ccc34)n2)CN1 (stereo unspecified) + Cc1nc(NC(=O)N2CCCC2C(N)=O)sc1-c1ccnc(C(C)(C)C(F)(F)F)c1', '90.4%');

So, Cn1nccc1Nc1nccc(-c2ccn(C(CO)c3ccc(Cl)c(F)c3)c(=O)c2)n1 (stereo unspecified) + COc1c(OCCCN2CCOCC2)ccc2c3n(c(=NC(=O)c4cnc(N)nc4)nc12)CCN3 ? Its viability, T/C was 89.7%

So, CCCS(=O)(=O)Nc1ccc(F)c(C(=O)c2c[nH]c3ncc(-c4ccc(Cl)cc4)cc23)c1F + CC(Nc1ncnc2nc[nH]c12)c1cc2cccc(Cl)c2c(=O)n1-c1ccccc1 ? Its viability, T/C was 112%

So, C#Cc1c(F)ccc2cc(O)cc(-c3ncc4c(N5CC6CCC(C5)N6)nc(OCC56CCCN5CC(F)C6)nc4c3F)c12 (stereo unspecified) + Cc1nc(NC(=O)N2CCCC2C(N)=O)sc1-c1ccnc(C(C)(C)C(F)(F)F)c1 ? Its viability, T/C was 84.1%

So, CC(=O)c1c(C)c2cnc(Nc3ccc(N4CCNCC4)cn3)nc2n(C2CCCC2)c1=O + CC(Nc1ccc2c(c1)OCCn1cc(N3C(=O)OCC3C(F)F)nc1-2)C(N)=O ? Its viability, T/C was 110%

So, CC1(C)CCC(Nc2ncc(C(F)(F)F)c(-c3c[nH]c4c(P(C)(C)=O)c(C#N)ccc34)n2)CN1 (stereo unspecified) + CC(Nc1ccc2c(c1)OCCn1cc(N3C(=O)OCC3C(F)F)nc1-2)C(N)=O ? Its viability, T/C was 99.7%

So, CC(Cn1ccc(-c2ccc(C#N)c(Cl)c2)n1)NC(=O)c1cc(C(C)O)[nH]n1 (stereo unspecified) + COc1c(OCCCN2CCOCC2)ccc2c3n(c(=NC(=O)c4cnc(N)nc4)nc12)CCN3 ? Its viability, T/C was 87.6%

So, CCN1CCN(Cc2ccc(Nc3ncc(F)c(-c4cc(F)c5nc(C)n(C(C)C)c5c4)n3)nc2)CC1 + CC(Nc1ccc2c(c1)OCCn1cc(N3C(=O)OCC3C(F)F)nc1-2)C(N)=O ? Its viability, T/C was 99.3%

So, CC(Cn1ccc(-c2ccc(C#N)c(Cl)c2)n1)NC(=O)c1cc(C(C)O)[nH]n1 (stereo unspecified) + CC(Nc1ncnc2nc[nH]c12)c1cc2cccc(Cl)c2c(=O)n1-c1ccccc1 ? Its viability, T/C was 94.9%

###

Tested on: 475296-252-R-J1-PDC spheroid viability
measurement_description: Anticancer human tumor 475296-252-R-J1-PDC cell line growth inhibition [PI3K];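 note: spheroids exposed to agents for seven days before readout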
condition_description: second compound 0.1 µM; first compound 1 µM; hits give low values; spheroids with HUVEC and MSC
property: viability, T/C

Use these answered entries as a reference point.
INSERT INTO measurements (compound, result) VALUES
  ('C#Cc1c(F)ccc2cc(O)cc(-c3ncc4c(N5CC6CCC(C5)N6)nc(OCC56CCCN5CC(F)C6)nc4c3F)c12 (stereo not given) + CC(Nc1ncnc2nc[nH]c12)c1cc2cccc(Cl)c2c(=O)n1-c1ccccc1', '71.7%'),
  ('C=CC(=O)N1CCN(c2nc(=O)n(-c3c(C)ccnc3C(C)C)c3nc(-c4c(O)cccc4F)c(F)cc23)C(C)C1 (stereo not given) + CC(Nc1ccc2c(c1)OCCn1cc(N3C(=O)OCC3C(F)F)nc1-2)C(N)=O', '103%'),
  ('CC1(C)CCC(CN2CCN(c3ccc(C(=O)NS(=O)(=O)c4ccc(NCC5CCOCC5)c([N+](=O)[O-])c4)c(Oc4cnc5[nH]ccc5c4)c3)CC2)=C(c2ccc(Cl)cc2)C1 + Cc1nc(NC(=O)N2CCCC2C(N)=O)sc1-c1ccnc(C(C)(C)C(F)(F)F)c1', '93%'),
  ('CC(Cn1ccc(-c2ccc(C#N)c(Cl)c2)n1)NC(=O)c1cc(C(C)O)[nH]n1 (stereo not given) + COc1c(OCCCN2CCOCC2)ccc2c3n(c(=NC(=O)c4cnc(N)nc4)nc12)CCN3', '95.3%');

So, CNC(=O)c1ccc(N2C(=S)N(c3ccc(C#N)c(C(F)(F)F)c3)C(=O)C2(C)C)cc1F + COc1c(OCCCN2CCOCC2)ccc2c3n(c(=NC(=O)c4cnc(N)nc4)nc12)CCN3 ? Its viability, T/C was 81%

So, CC(C)NCC(C(=O)N1CCN(c2ncnc3c2C(C)CC3O)CC1)c1ccc(Cl)cc1 (stereo not given) + CC(Nc1ncnc2nc[nH]c12)c1cc2cccc(Cl)c2c(=O)n1-c1ccccc1 ? Its viability, T/C was 73.3%

So, CC1(C)CCC(Nc2ncc(C(F)(F)F)c(-c3c[nH]c4c(P(C)(C)=O)c(C#N)ccc34)n2)CN1 (stereo not given) + CC(Nc1ccc2c(c1)OCCn1cc(N3C(=O)OCC3C(F)F)nc1-2)C(N)=O ? Its viability, T/C was 136%

So, C[C@@H](NC(=O)c1ncnc(N)c1Cl)c1ncc(C(=O)Nc2cc(C(F)(F)F)c(Cl)cn2)s1 + CC(Nc1ccc2c(c1)OCCn1cc(N3C(=O)OCC3C(F)F)nc1-2)C(N)=O ? Its viability, T/C was 93.8%

So, CC(C)NCC(C(=O)N1CCN(c2ncnc3c2C(C)CC3O)CC1)c1ccc(Cl)cc1 (stereo not given) + CC(Nc1ccc2c(c1)OCCn1cc(N3C(=O)OCC3C(F)F)nc1-2)C(N)=O ? Its viability, T/C was 92.5%

So, CC1(C)CCC(CN2CCN(c3ccc(C(=O)NS(=O)(=O)c4ccc(NCC5CCOCC5)c([N+](=O)[O-])c4)c(Oc4cnc5[nH]ccc5c4)c3)CC2)=C(c2ccc(Cl)cc2)C1 + COc1c(OCCCN2CCOCC2)ccc2c3n(c(=NC(=O)c4cnc(N)nc4)nc12)CCN3 ? Its viability, T/C was 85%
